systemTested: Endothelin-1 receptor (Homo sapiens)
Sequence (P25101 whole entry): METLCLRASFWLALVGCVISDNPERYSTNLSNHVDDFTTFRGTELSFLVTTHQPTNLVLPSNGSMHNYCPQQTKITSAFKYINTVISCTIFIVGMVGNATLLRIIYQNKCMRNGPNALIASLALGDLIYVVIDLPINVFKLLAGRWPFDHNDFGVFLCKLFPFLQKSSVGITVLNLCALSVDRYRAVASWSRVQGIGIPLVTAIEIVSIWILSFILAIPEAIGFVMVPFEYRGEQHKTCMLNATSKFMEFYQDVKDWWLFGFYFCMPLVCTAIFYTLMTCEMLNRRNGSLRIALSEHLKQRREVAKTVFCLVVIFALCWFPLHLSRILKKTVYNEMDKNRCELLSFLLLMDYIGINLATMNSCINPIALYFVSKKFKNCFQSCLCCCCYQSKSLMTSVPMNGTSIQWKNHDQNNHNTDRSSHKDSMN
assayComment: Inhibitory concentration required against [125I]ET1 binding to membranes of CHO cells expressing human ETA receptor
# pIC50 values compiled below
API: returns pIC50 as number; meaning -log10 of concentration in mol/L.

givensmiles=COc1ccccc1Oc1c(NS(=O)(=O)c2ccc(C(C)C)cn2)nc(N2CCOCC2)nc1OCCCNS(=O)(=O)c1ccc(C)cc1 measuredvalue=6.94
givensmiles=COc1ccccc1Oc1c(NS(=O)(=O)c2ccc(C(C)(C)C)cc2)nc(-c2ncccn2)nc1OCCCNS(=O)(=O)c1cccs1 measuredvalue=7.07
givensmiles=COc1ccccc1Oc1c(NS(=O)(=O)c2ccc(C)cn2)nc(-c2cc(OC)c(OC)c(OC)c2)nc1OCCNS(=O)(=O)c1cccs1 measuredvalue=5.56
givensmiles=COc1ccccc1Oc1c(NS(=O)(=O)c2ccc(C(C)C)cn2)nc(N2CCOCC2)nc1OCCNS(=O)(=O)c1ccc(C)cc1 measuredvalue=5.86
givensmiles=COc1ccccc1Oc1c(NS(=O)(=O)c2ccc(C(C)(C)C)cc2)nc(C2CC2)nc1OCCCNS(=O)(=O)c1cccs1 measuredvalue=7.85
givensmiles=COc1ccccc1Oc1c(NS(=O)(=O)c2ccc(C)cn2)nc(C2CC2)nc1OCCNS(=O)(=O)c1cccs1 measuredvalue=5.73
givensmiles=CCS(=O)(=O)NCCOc1nc(C2CC2)nc(NS(=O)(=O)c2ccc(C(C)C)cn2)c1Oc1ccccc1OC measuredvalue=7.30

pIC50 measured on `CCCS(=O)(=O)NCCOc1nc(C2CC2)nc(NS(=O)(=O)c2ccc(C(C)C)cn2)c1Oc1ccccc1OC` = 7.10

====

# IC50 values compiled below
systemTested: Endothelin receptor type B (Homo sapiens, UniProt P24530)
Sequence (P24530 whole entry): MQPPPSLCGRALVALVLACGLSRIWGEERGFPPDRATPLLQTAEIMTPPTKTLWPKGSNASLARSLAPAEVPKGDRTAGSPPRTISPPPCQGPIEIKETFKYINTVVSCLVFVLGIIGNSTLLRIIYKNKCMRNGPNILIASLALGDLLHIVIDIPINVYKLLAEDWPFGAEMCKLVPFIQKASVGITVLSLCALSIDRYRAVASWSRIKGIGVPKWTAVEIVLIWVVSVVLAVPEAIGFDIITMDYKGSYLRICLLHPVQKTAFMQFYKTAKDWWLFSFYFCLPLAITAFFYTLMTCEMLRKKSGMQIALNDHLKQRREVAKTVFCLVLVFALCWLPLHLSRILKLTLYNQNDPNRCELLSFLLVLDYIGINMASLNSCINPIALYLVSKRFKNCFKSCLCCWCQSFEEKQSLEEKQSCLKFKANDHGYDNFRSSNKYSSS
assayComment: Inhibitory concentration required against [125I]ET1 binding to membranes of CHO cells expressing human ETB receptor
Reply numerically in nM, unit not repeated.

givensmiles=CCCS(=O)(=O)NCCOc1nc(C2CC2)nc(NS(=O)(=O)c2ccc(C(C)C)cn2)c1Oc1ccccc1OC measuredparameter=IC50 measuredvalue=84

IC50 measured on `COc1ccccc1Oc1c(NS(=O)(=O)c2ccc(C(C)C)cn2)nc(C2CC2)nc1OCCCNS(=O)(=O)c1cccs1` = 4

IC50 measured on `CCCS(=O)(=O)NCCOc1nc(N2CCOCC2)nc(NS(=O)(=O)c2ccc(C)cn2)c1Oc1ccccc1OC` = 931

IC50 measured on `CCS(=O)(=O)NCCOc1nc(C2CC2)nc(NS(=O)(=O)c2ccc(C)cn2)c1Oc1ccccc1OC` = 5660

IC50 measured on `CCS(=O)(=O)NCCOc1nc(C2CC2)nc(NS(=O)(=O)c2ccc(C(C)C)cn2)c1Oc1ccccc1OC` = 397

IC50 measured on `COc1ccccc1Oc1c(NS(=O)(=O)c2ccc(C(C)C)cn2)nc(C2CC2)nc1OCCCNS(=O)(=O)c1ccc(C)cc1` = 19

IC50 measured on `CCCS(=O)(=O)NCCOc1nc(-c2cc(OC)c(OC)c(OC)c2)nc(NS(=O)(=O)c2ccc(C(C)C)cn2)c1Oc1ccccc1OC` = 24
